The reported measurements were obtained from the RNAGym collection of RNA variant scans (doi:10.1021/acssynbio.7b00057).

Entries and their aptazyme ON/OFF ratio
B1: Pistol ribozyme (parent)
chain: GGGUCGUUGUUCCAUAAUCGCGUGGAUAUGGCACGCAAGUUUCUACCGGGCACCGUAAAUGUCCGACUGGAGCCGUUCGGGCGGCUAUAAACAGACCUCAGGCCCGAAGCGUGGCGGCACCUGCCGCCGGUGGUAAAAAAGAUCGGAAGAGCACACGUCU

variants of: B1; assay: aptazyme ON/OFF ratio, guanine; higher = stronger switching; co-transcriptional cleavage with and without guanine

| residue.change | aptazyme ON/OFF ratio |
| --- | --- |
| U7G U8C G9U U10G U11C C13G | 1.09 |
| U7G G9A U11G C13U | 1.16 |
| U7C U8C G9U U10C U11C C12U C13A | 1.08 |
| U8C G9C U10C U11C C12A | 1.02 |
| U8C G9C U10C C12G | 1.06 |
| U7G U8C U10G U11C C12U C13A | 1.4 |
| U8C G9C U10G U11C C12U | 1.05 |
| U7G U8C G9U U10A U11G C13G | 1.1 |
| U7G U10G U11G C12U C13U | 1.36 |
| U7A U8G G9A U11G C13U | 1.4 |
| U8G G9U U11C | 1.24 |
| U8C U10G U11G C12U | 1.32 |
| G9U U11C C12G | 1.83 |
| U7A U8A U11C C12G C13U | 1.46 |
| U7A G9A U11C C12U C13G | 1.27 |
| U7A U8C G9U U10G U11A C12A C13A | 1.04 |
| U8G G9C U10G U11C C12U C13U | 1.03 |
| G9U U10C C12G C13U | 1.18 |
| U7A U8A G9U U10G U11A C12G C13G | 1.4 |
| U7A U8A G9C U11G C13U | 1.31 |
| U7A U8C G9A U10C U11A C12U C13G | 1.15 |
| U8G U10A U11C C13G | 1.02 |
| U7A U8G U10G U11A C12G C13U | 1.46 |
| U8G G9A U10A U11G C13U | 1.06 |
| U7C U8A G9A U10C U11C C12G C13U | 1.07 |
| U8G G9A U11A C12G C13G | 1.17 |
| U8A G9U U11G C12A C13A | 1.11 |
| U7C U8G G9A C12G C13G | 1.12 |
| U8C U10G C12G C13A | 1.09 |
| U8A G9U U11C C12A | 1 |
| U7G G9A U10C U11G C12U | 1.19 |
| U7A U8C G9U U10C C12U C13A | 1.19 |
| U7G U8C G9U U10A U11G C12A C13G | 1.09 |
| U7A U8A G9U U11C C13G | 1.05 |
| U7G U8A G9C U10C U11G C12U | 1.12 |
| U7A G9U U10G C13G | 1.14 |
| U7A U10C C13G | 1.08 |
| U7G U8G G9C C12G C13G | 1.13 |
| G9A U10A U11A C12G C13G | 1.2 |
| U8A G9A U11C | 1.05 |
| G9A U10A U11A C12A | 1.66 |
| U7C U8C G9U U10A U11G C13U | 1.31 |
| U7A U8A G9U U10C C12U | 1.24 |
| U7C U8A G9C U10A U11G C13G | 1.02 |
| U7A G9A U10G C13U | 1.28 |
| U7G G9U U10A U11G | 3.03 |
| U8A G9U U11A C12U C13U | 1.08 |
| U7A U8G G9C U10G U11G C12U C13U | 1.48 |
| U7G G9C C12A C13A | 1.42 |
| U7A U8C G9C C12G C13A | 1.07 |
| U7C U8A U10G U11G C12A C13U | 1.29 |
| U7C U8G G9A U10C U11G C12A C13U | 1.14 |
| C13G | 1.13 |
| U7A U10C U11C C12G C13U | 1.06 |
| U7C G9A U10C C13A | 1.07 |
| U7G U8G U10C U11A C12G C13A | 1.17 |
| U7G U8C G9A U10C C12G | 1.29 |
| U7C U8A G9A U10C U11C C12G C13A | 1.13 |
| U8G G9C C12A C13A | 1.04 |
| U7C U8C G9C C12U | 1.17 |
| U7A U8G U10G | 1.25 |
| U7G U8C G9A U10A U11G C12A C13U | 1.09 |
| U8A G9A U10G U11A C12G C13U | 1.12 |
| U10A U11A C12G C13U | 1.23 |
| U7A U8G G9C U10A U11A C12A C13A | 1.5 |
| U7C U10A U11G | 1.46 |
| U7A U8A G9C U11G C12A C13G | 1.22 |
| U8C G9U U10G U11G C12U C13A | 1.11 |
| U7A U8A G9U U10G C12G C13G | 1.08 |
| U7C U8G U10C C12A C13A | 1.28 |
| U7A U8C U10A C12A | 1.24 |
| U7C U8A G9U C13A | 1.16 |
| U7C U8G G9U U11A C13U | 1.28 |
| U7G U11G C12A C13U | 1.14 |
| G9C U10A U11G C12A C13U | 1.17 |
| U7G U8A G9A U10C C12A C13U | 1.08 |
| U7C U8C G9A U10G U11C C12A | 1.54 |
| U7C G9A U10G U11C C12A C13G | 1.11 |
| U7G U8C G9U U10A U11A C12A C13A | 1.29 |
| U7G U8A G9A U10G C12U C13A | 1.27 |
| U7C U10G U11A C12G C13A | 1.09 |
| U7G G9C U10A U11A C12A C13G | 1.15 |
| U7G U8C G9C U11G C12G C13U | 1.1 |
| U8A G9C U10G U11C C12G C13U | 1.19 |
| U7C U8G G9U U10G U11A C12A C13G | 1.17 |
| U7G U8C G9A U10C U11G C12G C13U | 1.05 |
| U7A U8G U10G U11C C12U | 1.53 |
| U8C U11C C12U C13G | 1.5 |
| U7A U8G G9C U10A U11C C13A | 1.04 |
| U8C G9C U11G C12G | 1.19 |
| U7A U8A G9U U10G C12A C13U | 1.19 |
